Would you mind telling me the reported MIC of each entry?
Tested on: Mycobacterium tuberculosis
Protocol Description: Antimycobacterial activity against Mycobacterium tuberculosis H37Rv ATCC 25618 by BACTEC 460 radiometric method
Assay type: functional
Write the value in µM as a bare number.

Query string: Name the recorded MIC of the compound listed here: CC(C)=CCC/C(C)=C\CNCCNC12CC3CC(CC(C3)C1)C2
Result string: 1

Query string: Name the recorded MIC of the compound listed here: CC(C)=CCC/C(C)=C/CC/C(C)=C/CNCCNC1C2CC3CC(C2)CC1C3 (stereo unspecified)
Result string: 0.25

Query string: Name the recorded MIC of the compound listed here: CC(C)CCCC(C)CCNCCNC1C2CC3CC(C2)CC1C3 (stereo unspecified)
Result string: 1

Query string: Name the recorded MIC of the compound listed here: CC(C)CCCC(C)CCNCCNC12CC3CC(CC(C3)C1)C2 (stereo unspecified)
Result string: 0.5

Query string: Name the recorded MIC of the compound listed here: CC(C)CCCC(C)CCCC(C)CCNCCNC1C2CC3CC(C2)CC1C3 (stereo unspecified)
Result string: 0.5

Query string: Name the recorded MIC of the compound listed here: CC(C)=CCC/C(C)=C/CNCCNC1C2CC3CC(C2)CC1C3 (stereo unspecified)
Result string: 0.5
